Measured values drawn from patent US20250346673A1 for this set.

# target entity: T1, cynomolgus BDCA2 (cynomolgus monkey, UniProt A0A2K5UWP4 1-212)
# T1 construct: whole, on cells; also called Cyno BDCA2; cynoBDCA2
# T1 sequence: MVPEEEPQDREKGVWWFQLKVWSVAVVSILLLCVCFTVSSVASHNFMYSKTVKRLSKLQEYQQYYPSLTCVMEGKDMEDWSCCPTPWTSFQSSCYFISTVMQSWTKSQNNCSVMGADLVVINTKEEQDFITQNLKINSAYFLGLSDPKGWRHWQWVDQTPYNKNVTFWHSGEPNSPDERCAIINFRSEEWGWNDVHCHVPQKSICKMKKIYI
# test details: FACS, 293F-cynoBDCA2 cells
EC50 values, listed per item
parameter: EC50 (nM)

- Hu033-16 (antibody, IgG1, V domains shown, Humanized IgG1; also called Hu033-16(BM4)) VH: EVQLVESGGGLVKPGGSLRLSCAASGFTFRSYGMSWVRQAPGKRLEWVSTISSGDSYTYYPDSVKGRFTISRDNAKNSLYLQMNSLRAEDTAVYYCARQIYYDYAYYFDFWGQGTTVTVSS VL: EIVLTQSPATLSLSPGERATLSCRASESVSFRTSHLMHWYQQKPGQAPRLLIYGASNLESGIPARFSGSGSETDFTLTISRLEPEDFAVYFCQQSIEDPPTFGGGTKVEIK: 1.37
- Hu033-23 (antibody, IgG1, V domains shown, Humanized IgG1; also called Hu033-23(BM3)) VH: EVQLVESGGGLVKPGGSLRLSCAASGFTFRSYGMSWVRQAPGKRLEWVSTISSGDSYTYYPDSVKGRFTISRDNAKNSLYLQMNSLKAEDTAVYYCARQIYYDYAYYFDFWGQGTTVTVSS VL: EIVLTQSPATLSLSPGERATLSCRASESVSFRTSHLMHWYQQKPGQAPRLLIYGASNLESGIPARFSGSGSGTDFTLTISRLEPEDFAVYYCQQSIEDPPTFGGGTKVEIK: 1.24
- Hu033-02 (antibody, IgG1, V domains shown, Humanized IgG1; also called Hu033-02(BM2)) VH: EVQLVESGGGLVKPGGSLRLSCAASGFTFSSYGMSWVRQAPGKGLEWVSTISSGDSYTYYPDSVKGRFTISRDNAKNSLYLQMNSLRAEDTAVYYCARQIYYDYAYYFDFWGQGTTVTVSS VL: DIVLTQSPASLAVSPGQRATITCRASESVSFRTSHLMHWYQQKPGQPPKLLIYGASNLESGVPARFSGSGSETDFTLTINPVEAEDTANYYCQQSIEDPPTFGGGTKVEIK: 1.2
